Values were extracted from PubChem BioAssay (EPA / NIEHS).

TEST_PROTOCOL: ATG_E_Box_CIS: Attagene CIS-FACTORIAL HepG2 Assay for human Enhancer Box (E-box) (AID 2282936)
PROTOCOL_CONDITIONS: HepG2 E-box cis-reporter transcription, actives raise or lower the signal
Activity calls are given as the source filed them. How the source made its calls: active means hit-call score of the fitted dose curve at least 0.9, where 1 is the maximum; inactive means score below 0.9.
Entry note: the call must match one of 1 for active, 0 for inactive

Tell me the recorded outcome of this test for `N#Cc1ccc(N(CC(N)=O)CC(F)(F)F)cc1C(F)(F)F` . 0

Query `COc1ccc(O)c(C(C)(C)C)c1` next 0

# iterate: `Cc1cc2c3c(c1)C(c1ccccc1)=N[C@@H](NC(=O)c1ccncc1)C(=O)N3CC2` 0

Now consider `COS(=O)(=O)OC` . 0

Do the same for `Nc1ccc(-c2ccc(N)cc2)cc1` please 0

Also, `C[C@]12CCC(=O)C=C1CC[C@@H]1[C@@H]2CC[C@@]2(C)[C@H]1CC[C@]2(C)O` please. 0

Same again, this time with `c1cc2ccc3cccc4ccc(c1)c2c34` 0

What do you have for `O=C(NC(=O)c1c(F)cccc1F)Nc1cc(Cl)c(OC(F)(F)C(F)F)c(Cl)c1` ? 0

Also `Cc1cc(O)ccc1Cl` , if possible. 0

Subsequent entry: `CO/C=C(/C(=O)OC)c1ccccc1COc1cccc(C(F)(F)F)n1` 0

Another compound to check: `O=S(=O)(O)C(F)(F)C(F)(F)C(F)(F)C(F)(F)C(F)(F)C(F)(F)F` 0

And `Oc1ccc(Cl)cc1Cl` ? 0

And what about the compound `CN(C)CCO` ? 0

Okay, and `CC(C)(c1ccccc1)c1ccc(O)cc1` ? 0

How about this compound: `CCCN(CCC)N=O` 0

Same for `CC1=C2C[C@H]3[C@@H](CC=C4C[C@@H](O)CC[C@@]43C)[C@@H]2CC[C@]12O[C@@H]1C[C@H](C)CN[C@H]1[C@H]2C` 0

What would you report for `CCNc1nc(NC(C)C)nc(SC)n1` ? 0

Now consider `ClC1=C(Cl)[C@]2(Cl)[C@@H]3[C@H]4C[C@H]([C@@H]5O[C@H]45)[C@@H]3[C@@]1(Cl)C2(Cl)Cl` and answer again. 0

Continue with `CC(c1ccc(O)cc1)(c1ccc(O)cc1)c1ccc(O)cc1` 1

Now this one: `O=C(N[C@H]1CN2CCC1CC2)c1cc2ccoc2cn1` 0

Let us now turn to `Sc1ccccc1` 0

Now consider `Cc1cccc([N+](=O)[O-])c1` and answer again. 0

Same question for `c1ccc(-c2ccccc2)cc1` please. 0

Quick one: CCC(C)c1cc([N+](=O)[O-])cc([N+](=O)[O-])c1O (centres undefined) 0
